These entries and their values trace back to PubChem BioAssay AID1963826.

System: 926638-142-R-J1-PDC complex spheroid viability;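 also: spheroids exposed to drugs for one week before readout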
protocol.description: Anticancer human tumor 926638-142-R-J1-PDC patient-derived endometrial carcinoma cell line growth inhibition [POLQ]
condition.context: curve of first compound; second compound 0.1 µM
measurement.name: IC50 (nM)
The reply should be a number in nM, with the unit left off.

Can you share its IC50? I mean this compound: CCc1cc2c(N3CCc4c(cc(Cn5ccnc5)cc4-c4cn(C)nc4C(F)(F)F)C3=O)cc(C)nc2c(OC)n1 + Nc1ccc(C#CCN(C(=O)Cc2ncc(C(F)(F)F)cc2C(F)(F)F)c2ccc(F)cc2)nn1
426

Can you share its IC50? I mean this compound: COc1cccc(OCCCN)c1-c1cc(Nc2cnc(C#N)cn2)n[nH]1 + COC1C(OC(N)=O)C(O)C(Oc2ccc3c(O)c(NC(=O)c4ccc(O)c(CC=C(C)C)c4)c(=O)oc3c2C)OC1(C)C
122

Can you share its IC50? I mean this compound: CC1COCCN1c1cc(C2(S(C)(=N)=O)CC2)nc(-c2ccnc3[nH]ccc23)n1 (stereo not given) + Cc1cccc(N(C)C(=O)C2C(O)CCN2c2nc(C)cc(C(F)(F)F)c2C#N)c1
5510
